- Study System: CALRins5 (mutant calreticulin, 5 base pair insertion, Type 2) expressed with MPL on engineered cancer cells (UniProt P27797)
- Sequence (P27797 other isoform, or with tags, fused parts or gaps mutant limits assumed): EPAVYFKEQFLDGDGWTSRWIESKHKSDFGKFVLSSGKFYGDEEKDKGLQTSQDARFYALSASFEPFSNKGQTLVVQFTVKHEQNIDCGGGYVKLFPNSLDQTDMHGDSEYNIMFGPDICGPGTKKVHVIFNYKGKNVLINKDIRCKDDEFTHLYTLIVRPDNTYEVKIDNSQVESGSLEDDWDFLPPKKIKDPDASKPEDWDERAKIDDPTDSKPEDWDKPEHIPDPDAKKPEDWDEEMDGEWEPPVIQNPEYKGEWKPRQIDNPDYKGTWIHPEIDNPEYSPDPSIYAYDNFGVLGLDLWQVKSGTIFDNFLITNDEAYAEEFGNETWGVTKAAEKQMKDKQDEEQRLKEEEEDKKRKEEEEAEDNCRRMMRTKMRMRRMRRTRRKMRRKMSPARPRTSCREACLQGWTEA
- Procedure Text: cell-based or functional assay
Overview of reported Cytotoxicity EC50, K562 MPL CALRins5 cells across a group of binders:
Response body: numeric value in µg/mL, unit text excluded.

Study these solved cases before continuing.
>  <Binder>
CALRB75 (MP1004 Fab x CD3W245-LH-scFv, medium affinity) (bispecific antibody, part only; not given: CD3 scFv arm and IgG1 constant regions, V domains shown, not shown: another chain or arm of the molecule; a dimerising Fc or GST; small tags and cut ends) VL: DPMLTQTPSSVSAAVGGTVTINCQSSQSVYNNNWLSWLQQKPGQPPNRLIYDASKLESGVPSRFSGSGSGTQFTLTISGVQSDDAATYYCAGGFTGNVYTFGGGTEVVVK VH: QEQLEESGGRLVTPGTPLTLTCKVSGIDLSNNAISWVRQAPGKGLEYIGVIGNTGDTYYASWAKGRFTISKTSSTTVDLKMTSLTTEDTATYFCVRGPPSYSNSVKNIWGPGTLVTISS

>  <Endpoint Result>
0.116

$$$$
>  <Binder>
CALRB115 (MP1004 Fab x CD3W245-HL-scFv, high affinity) (bispecific antibody, part only; not given: anti-CD3 scFv arm, constant regions, V domains shown, not shown: another chain or arm of the molecule; a dimerising Fc or GST; small tags and cut ends) VH: QEQLEESGGRLVTPGTPLTLTCKVSGIDLSNNAISWVRQAPGKGLEYIGVIGNTGDTYYASWAKGRFTISKTSSTTVDLKMTSLTTEDTATYFCVRGPPSYSNSVKNIWGPGTLVTISS VL: DPMLTQTPSSVSAAVGGTVTINCQSSQSVYNNNWLSWLQQKPGQPPNRLIYDASKLESGVPSRFSGSGSGTQFTLTISGVQSDDAATYYCAGGFTGNVYTFGGGTEVVVK

>  <Endpoint Result>
0.0541

$$$$
>  <Binder>
CALRB120 (MP1018C Fab x CD3W245-HL-scFv, high affinity) (bispecific antibody, part only; not given: CD3 scFv arm and IgG1 constant regions, V domains shown, not shown: another chain or arm of the molecule; a dimerising Fc or GST; small tags and cut ends) VL: DVVMTQTPSSVSAAVGGTVTINCQASQSLYNNKNLAWYQQKPGQPPKLLIYYASALASGVSSRFKGSGSGTQFTLTISGVQSDDAATYYCQGEFNCNSADCNSFGGGTEVVVK VH: QSVEESGGRLVTPGTPLTITCTVSGFSLSSYAMSWVRQAPGKGLEWIGVIDSGGTTYYATWAKSRFTISKTSSTKVALKITSPTTEDTATYFCARESYAGYDGYGHPIPYGMDPWGPGTLVTVSS

>  <Endpoint Result>
0.0119

$$$$
>  <Binder>
CALRB79 (MP1016 Fab x CD3W245-LH-scFv, medium affinity) (bispecific antibody, part only; not given: anti-CD3 scFv arm, constant regions, V domains shown, not shown: another chain or arm of the molecule; a dimerising Fc or GST; small tags and cut ends) VL: DPVLTQTESPVSAAVGGTVTINCQASQSVYDDNNLAWYQQKPGQPPKRLIYPASTLASGVSSRFSGSGSGSQFTLTISDVQSDDAATYYCQGEFSCTSADCVAFGGGTEVVVK VH: QEQLKESGGRLVTPGTPLTLTCTASGFSLSNYYMSWVRQAPGKGLEWIGGISSRAGTWYASWAKGRFTISGTSTTMDLKITSPTTEDTATYFCARGLKIWGPGTLVTVSS

>  <Endpoint Result>
0.0416

$$$$

Proceed to the following item.
# Cytotoxicity EC50, K562 MPL CALRins5 cells (binder: CALRB74 (MP1001 Fab x CD3W245-LH-scFv, medium affinity) (bispecific antibody, part only; not given: CD3 scFv arm and IgG1 constant regions, V domains shown, not shown: another chain or arm of the molecule; a dimerising Fc or GST; small tags and cut ends) VL: YVMMTQTPSSVSAAVGGTVTINCQASQSLYNNNNLAWFQQKPGQPPKRLIYPASTLASGVSSRFKGSGSGTQFTLTISDVQSDDAATYFCLGEFSCSSADCYAFGGGTEVVVK VH: QEQLKESGGRLVTPGTPLTLTCAVSGFSLDIYGMSWVRQAPGKGLEWIGIIYIEGITYYANWAKGRFTISKTSSTTLELKMTSLTTEDTAMYFCVAGVGRIWGPGTLVTVSS ) is 0.0304
